Numbers sourced from ChEMBL document CHEMBL1153968.

pIC50: −log10 of the molar value.
pIC50, RAC-alpha serine/threonine-protein kinase (Homo sapiens): measured values
Experimental Endpoint: pIC50

>>> result_number("NC[C@H](CC1CCCCC1)NC(=O)c1cc(Br)c(-c2ccnc3[nH]ccc23)s1")
9.00
>>> result_number("NCC(CNc1ccc(-c2ccnc3[nH]ccc23)s1)c1ccccc1 (centres undefined)")
6.60
>>> result_number("NCC(NC(=O)c1cc(Br)c(-c2ccnc3[nH]ccc23)s1)c1ccccc1 (racemic)")
8.10
>>> result_number("NCCC(NC(=O)c1cc(Br)c(-c2ccnc3[nH]ccc23)s1)c1ccccc1 (centres undefined)")
8.10
>>> result_number("NC[C@H](Cc1cccc(F)c1)NC(=O)c1cc(Br)c(-c2ccnc3[nH]ccc23)s1")
9.00
>>> result_number("NC[C@@H](Cc1ccccc1)NC(=O)c1cc(Br)c(-c2ccnc3[nH]ccc23)s1")
7.49
>>> result_number("NCC(NC(=O)c1cc(-c2ccccc2)c(-c2ccnc3[nH]ccc23)s1)c1ccccc1 (centres undefined)")
7.30
>>> result_number("NC[C@H](Cc1ccccc1F)NC(=O)c1cc(Br)c(-c2ccnc3[nH]ccc23)s1")
9.00
>>> result_number("NCC(NC(=O)c1cc(C2CC2)c(-c2ccnc3[nH]ccc23)s1)c1ccccc1 (centres undefined)")
8.22

---

test: AUC (0 to t) in rat at 10 mg/kg, po after 24 hrs; format: ADME, organism-based, Plasma; design: time < 24 hr, dose 10 mg/kg, route oral; conditions: plasma
Experimental Endpoint: AUC(0-t) at 24 h (ng·h/mL)

>>> result_number("NCC(NC(=O)c1cc(Br)c(-c2ccnc3[nH]ccc23)s1)c1ccccc1 (racemic)")
3400

---

molecular target: Glycogen synthase kinase-3 beta (Homo sapiens)
Sequence (P49841 whole entry): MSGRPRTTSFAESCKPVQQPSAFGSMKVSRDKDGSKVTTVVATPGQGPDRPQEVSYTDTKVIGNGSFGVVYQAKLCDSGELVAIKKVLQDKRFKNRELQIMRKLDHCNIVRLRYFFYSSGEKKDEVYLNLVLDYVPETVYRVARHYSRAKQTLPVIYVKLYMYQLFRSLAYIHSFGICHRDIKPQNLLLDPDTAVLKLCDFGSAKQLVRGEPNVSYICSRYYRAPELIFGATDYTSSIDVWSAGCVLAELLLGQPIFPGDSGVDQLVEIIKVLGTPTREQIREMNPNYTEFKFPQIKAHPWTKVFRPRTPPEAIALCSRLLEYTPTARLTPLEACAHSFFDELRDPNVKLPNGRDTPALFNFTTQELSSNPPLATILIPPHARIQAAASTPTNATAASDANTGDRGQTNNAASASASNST
pIC50: −log10 of the molar value.
Experimental Endpoint: pIC50

>>> result_number("NC[C@H](Cc1cccc(F)c1)NC(=O)c1cc(Br)c(-c2ccnc3[nH]ccc23)s1")
4.70

---

molecular target: Serine/threonine-protein kinase pim-1 (Homo sapiens, UniProt P11309)
Sequence (P11309 whole entry): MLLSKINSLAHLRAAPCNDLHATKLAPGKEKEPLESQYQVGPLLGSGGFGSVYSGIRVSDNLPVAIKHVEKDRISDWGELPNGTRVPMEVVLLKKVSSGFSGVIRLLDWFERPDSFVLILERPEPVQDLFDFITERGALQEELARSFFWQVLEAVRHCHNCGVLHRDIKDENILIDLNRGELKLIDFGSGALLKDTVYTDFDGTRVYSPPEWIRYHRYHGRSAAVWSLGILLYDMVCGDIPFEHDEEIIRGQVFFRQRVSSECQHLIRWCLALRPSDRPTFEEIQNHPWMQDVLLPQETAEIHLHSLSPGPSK
Experimental Endpoint: IC50 (nM)

>>> result_number("NC[C@H](Cc1cccc(F)c1)NC(=O)c1cc(Br)c(-c2ccnc3[nH]ccc23)s1")
794

---

assay: Oral bioavailability in rat at 10 mg/kg after 24 hrs; format: ADME, organism-based; conditions: in vivo
Experimental Endpoint: bioavailability (%)

>>> result_number("NCC(NC(=O)c1cc(Br)c(-c2ccnc3[nH]ccc23)s1)c1ccccc1 (racemic)")
32

---

biological target: MAP kinase-activated protein kinase 2 (Homo sapiens, UniProt P49137); assay: Inhibition of MAPKAPK2
Sequence (P49137 whole entry): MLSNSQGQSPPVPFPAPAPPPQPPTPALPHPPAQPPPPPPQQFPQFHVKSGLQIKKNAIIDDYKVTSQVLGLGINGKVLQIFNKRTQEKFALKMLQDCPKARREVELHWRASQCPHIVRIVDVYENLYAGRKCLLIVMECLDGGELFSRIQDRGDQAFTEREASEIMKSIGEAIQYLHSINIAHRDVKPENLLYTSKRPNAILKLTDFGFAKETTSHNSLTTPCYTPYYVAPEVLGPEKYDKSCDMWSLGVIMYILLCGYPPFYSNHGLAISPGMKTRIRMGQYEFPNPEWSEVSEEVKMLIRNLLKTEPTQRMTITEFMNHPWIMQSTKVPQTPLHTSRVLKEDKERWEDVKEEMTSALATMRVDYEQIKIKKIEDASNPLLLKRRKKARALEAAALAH
Experimental Endpoint: IC50 (nM)

>>> result_number("NC[C@H](Cc1cccc(F)c1)NC(=O)c1cc(Br)c(-c2ccnc3[nH]ccc23)s1")
2500
